SUBJECT_OF_TEST: Parkinson's disease protein 7 (PARK7/DJ1) (human)
PROTOCOL_NOTES: primary screen, percent inhibition; higher = more effect of the substance
RUN_CONDITIONS: 100 µM
In all, about 7,900 compounds went through this assay and about 400 (5.1%) showed an effect of 50% or more. Only a selection was taken, and strong results are over-represented in it overall.
MEASURED_ATTRIBUTE: Inhibition % (%)

>>> experimental_result("CN(Cc1ccccc1)C(=O)C=CC(=O)O")
23.5
>>> experimental_result("Cc1nc(-c2ccco2)nc(S)c1C(=O)O")
1.46
>>> experimental_result("OB(O)C1CCN(Cc2cc3c(cn2)OCCO3)C1 (stereo not shown)")
21.4
>>> experimental_result("O=C(CCl)Nc1nc(-c2ccco2)cs1")
21.8
>>> experimental_result("CN(C#N)Cc1ccccc1")
62.8
>>> experimental_result("CN(CCc1ccccc1)c1nccnc1C#N")
3.72
>>> experimental_result("CC1(C)OB(c2cccc3scnc23)OC1(C)C")
3.85

###

SUBJECT_OF_TEST: Parkinson's disease protein 7 (PARK7/DJ1) (human)
PROTOCOL_NOTES: primary screen, percent inhibition; higher = more effect of the substance
RUN_CONDITIONS: 100 µM
The campaign covered roughly 7,900 compounds. About 400 (5.1%) showed an effect of 50% or more. The sample holds strong results, similar compounds and a random draw of the others, so the mix is not that of the screen.
MEASURED_ATTRIBUTE: Inhibition % (%)

>>> experimental_result("O=C(CCl)Nc1ccc(Br)cc1F")
71.1
>>> experimental_result("O=C(CCl)Nc1ccc(F)cc1F")
23.9
>>> experimental_result("O=C(CCl)Nc1ccc(F)c(F)c1F")
32.8
>>> experimental_result("O=C(CCl)Nc1ccc(F)cc1Cl")
13.8
>>> experimental_result("O=C(CCl)c1ccc2[nH]c(=O)[nH]c2c1")
63.2
>>> experimental_result("O=C(CCl)c1ccns1")
95.1
>>> experimental_result("C=CC(=O)N1Cc2ccccc2OC(C)(C)C1")
13.6
>>> experimental_result("O=C(CCl)Nc1ccc(Cl)cc1Cl")
18
>>> experimental_result("N#CC(=Cc1ccccc1)C(=O)Nc1nncs1")
3.58
>>> experimental_result("O=C(CCl)c1ccc2c(c1)COC2")
72.7
>>> experimental_result("CC(=O)N1c2ccc(C(=O)CCl)cc2CC1C (centres unmarked)")
5.96
>>> experimental_result("CC1(C)CC(OS(C)(=O)=O)CCO1 (centres unmarked)")
8.17
>>> experimental_result("CC(C)(C)OC(=O)N1CCC(B2OC(C)(C)C(C)(C)O2)C1 (centres unmarked)")
1.29
>>> experimental_result("C=CC(=O)Nc1cc(F)ccc1C")
3.57

###

SUBJECT_OF_TEST: Parkinson's disease protein 7 (PARK7/DJ1) (human)
PROTOCOL_NOTES: primary screen, percent inhibition; higher = more effect of the substance
RUN_CONDITIONS: 100 µM
About 400 (5.1%) of roughly 7,900 compounds showed an effect of 50% or more. Shown is part of a subset that was picked to be rich in strong results.
Each entry gets false if its Inhibition % stays under 10%, and true if its Inhibition % is 10% or above.

>>> class_name("Cc1nc(C=CC(=O)N2CCC(C)(C(=O)O)C2)cs1 (centres unmarked)")
"false"
>>> class_name("N#Cc1cc(Cl)nc(C2CC2)n1")
"false"
>>> class_name("Cl.O=S(=O)(F)CC1CCCNC1 (centres unmarked)")
"false"
>>> class_name("CC(=O)NCc1ccc(C(=O)CCl)o1")
"true"
>>> class_name("C#CCN1CCN(c2oc(-c3ccco3)nc2C#N)CC1")
"true"
>>> class_name("CC(=O)NCCc1ccc(C(=O)CCl)cc1")
"true"
>>> class_name("O=C(c1ccc(S)nc1)N1CCCC1")
"true"
>>> class_name("O=C(CCl)N1N=C(c2ccco2)CC1c1cccs1 (centres unmarked)")
"true"
>>> class_name("O=C(CCl)NCCc1ccc(Cl)cc1")
"true"
>>> class_name("O=C1OCCC1N1CCN(C(=O)c2cccc(F)c2)CC1 (centres unmarked)")
"false"
>>> class_name("O=c1[nH]c(=O)n(C2CC2)c2nc(C3CC3)nc(S)c12")
"false"
>>> class_name("Cc1cc(C)n(CCCNc2ccnc(C#N)c2)n1")
"false"
>>> class_name("CCN(CC)S(=O)(=O)c1cccc(NC(=O)CCl)c1")
"true"
>>> class_name("O=C1NC(=O)C(CCS(=O)(=O)F)N1 (centres unmarked)")
"true"
>>> class_name("COC(=O)c1ccc(C)c(NC(=O)CCl)c1")
"false"
>>> class_name("O=C(N1CCc2[nH]c3ccccc3c2C1)n1ccnc1")
"true"
>>> class_name("C=CC(=O)NCC1CCC=CO1 (centres unmarked)")
"false"
>>> class_name("COC(=O)C1CC(S(=O)(=O)F)CN1C(=O)C1CC1C (centres unmarked)")
"true"
>>> class_name("C=CC(=O)NCC1CCN(c2ccccc2)CC1")
"false"
>>> class_name("CC(=O)NC(C)c1ccc(C(=O)CCl)cc1 (centres unmarked)")
"true"
>>> class_name("Cc1cc(C(=O)Cn2cnc(C#N)n2)c(C)s1")
"false"
>>> class_name("C=CC(=O)NCC1CCC2(CCCC2)O1 (centres unmarked)")
"false"
>>> class_name("N#Cc1[nH]c2ccccc2c1N")
"true"
>>> class_name("CS(=O)(=O)NCCc1ccc(C(=O)CCl)cc1")
"true"
>>> class_name("C=C(C(=O)O)c1ccccc1F")
"false"
>>> class_name("CC1CC1C(=O)N1CCCCC1CCS(=O)(=O)F (centres unmarked)")
"true"
>>> class_name("CC(C)N(C)S(=O)(=O)c1ccc(NC(=O)CCl)cc1")
"true"
>>> class_name("N#CC(=Cc1ccc(N)cc1)C(N)=O")
"false"
>>> class_name("CN(C)S(=O)(=O)c1ccc(NC(=O)CCCl)cc1")
"false"
>>> class_name("Cl.O=S(=O)(F)CC1CNCCO1 (centres unmarked)")
"true"
>>> class_name("C=CC(=O)NC1CCCN(c2cccnc2)C1=O (centres unmarked)")
"true"
>>> class_name("O=C(c1ccccc1)N1CCN(C(=O)n2ccnc2)CC1")
"false"
>>> class_name("N#Cc1nnc2ccccc2c1N")
"false"
>>> class_name("CC(=O)N(C)Cc1ccc(C(=O)CCl)cc1")
"true"
>>> class_name("O=C(CCl)N1CCc2[nH]c3ccccc3c2C1")
"false"
>>> class_name("C=CC(=O)NC1COc2cc(F)cc(F)c21 (centres unmarked)")
"false"
>>> class_name("Cc1cc(C)n(CC2CCCN2C2CC(C)OC2=O)n1 (centres unmarked)")
"false"
>>> class_name("C=CC(=O)N1CCCCC1c1nc2ccccc2o1 (centres unmarked)")
"false"
>>> class_name("Cc1ccc2[nH]c3c(c2c1)CN(C(=O)n1ccnc1)CC3")
"true"
>>> class_name("O=C1CN=C(S)N1c1ccccc1Cl")
"false"
>>> class_name("NS(=O)(=O)c1ccc(CCNC(=O)CCl)cc1")
"true"
>>> class_name("CN1CCOC(CNS(=O)(=O)C=Cc2ccccc2)C1 (centres unmarked)")
"false"
>>> class_name("N#CC(=Cc1ccccc1OCC(F)(F)F)C(N)=O")
"true"
>>> class_name("N#Cc1nnc(-c2ccccc2)s1")
"true"
>>> class_name("CC(=O)NCc1ccc(S(=O)(=O)F)cc1")
"true"
>>> class_name("CN(C)C(=O)c1ccc(B2OC(C)(C)C(C)(C)O2)c(Cl)c1")
"false"
>>> class_name("O=C(C1CCOCC1)N1CCOC(CS(=O)(=O)F)C1 (centres unmarked)")
"true"
>>> class_name("C=CC(=O)N1CCCCC1CS(C)(=O)=O (centres unmarked)")
"false"
>>> class_name("CC1(C)OB(c2ccc3c(c2)NC(=O)C3)OC1(C)C")
"true"

###

SUBJECT_OF_TEST: Parkinson's disease protein 7 (PARK7/DJ1) (human, UniProt Q99497)
Sequence (Q99497 whole entry, looked up): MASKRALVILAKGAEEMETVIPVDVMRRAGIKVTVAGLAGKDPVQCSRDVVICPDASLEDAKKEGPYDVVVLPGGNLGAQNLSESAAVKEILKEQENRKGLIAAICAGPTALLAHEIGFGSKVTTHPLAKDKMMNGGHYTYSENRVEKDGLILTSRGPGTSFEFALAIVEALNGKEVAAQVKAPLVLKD
PROTOCOL_NOTES: primary screen, percent inhibition; read as competition with a fluorescent probe by fluorescence polarization; higher = more effect of the substance
RUN_CONDITIONS: 100 µM
Hit rate of the full screen: of about 7,900 compounds, about 400 (5.1%) showed an effect of 50% or more. This excerpt belongs to a sample that is enriched for strong results.
Listed compounds paired with reported Inhibition %
MEASURED_ATTRIBUTE: Inhibition % (%)

>>> experimental_result("O=C(CCc1ccc(S(=O)(=O)F)cc1)N1CCCCC1")
12.4
>>> experimental_result("O=C(CCl)c1cn(-c2ccc(F)cc2)nn1")
5.02
>>> experimental_result("C=CS(=O)(=O)c1ccc(C#N)cn1")
1.18
>>> experimental_result("C=CC(=O)N1CCC(Oc2cccnc2N2CCCC2)C1 (centres unmarked)")
13.2
>>> experimental_result("C=CC(=O)Nc1cnn(C(C)C)c1C1CC1")
10.5
>>> experimental_result("O=C(CCl)NCC1Cc2ccccc2O1 (centres unmarked)")
26.5
>>> experimental_result("CC(=O)SCCc1csc(-c2ccccn2)n1")
9.81
>>> experimental_result("C=CC(=O)N1CC2(CCOCC2)C1C(C)C (centres unmarked)")
7.75
>>> experimental_result("CCC(NC(=O)CCl)c1ccc(Br)cc1 (centres unmarked)")
5.16
>>> experimental_result("CC(C)NC(=O)C(C#N)=Cc1ccccc1Cl")
6.2
>>> experimental_result("CCn1cc(CCCl)cn1")
5.4
>>> experimental_result("Cn1cc(NS(=O)(=O)C=Cc2ccccc2Cl)cn1")
28.6
>>> experimental_result("Cc1ccc(C)c(S(=O)(=O)n2nc(C)cc2C)c1")
1.62
>>> experimental_result("O=C(O)Cc1ccc(S(=O)(=O)F)cc1")
89.7
>>> experimental_result("O=S(=O)(F)c1ccc(F)cc1")
2.62
>>> experimental_result("C=CCOc1ccc(Cl)c(C#N)n1")
4.33
>>> experimental_result("CC1CCC2(CC1)NC(=O)N(CC=CCl)C2=O (centres unmarked)")
-0.501
>>> experimental_result("O=S(=O)(F)c1ccc(Cn2cnc(Br)n2)cc1")
12.6
>>> experimental_result("O=S(=O)(F)c1ccc2cnccc2c1")
86.1
>>> experimental_result("Cc1ccc(F)c(OS(=O)(=O)c2cn[nH]c2C)c1")
11.7
>>> experimental_result("CC(C)N(C)C(=O)CCc1ccc(S(=O)(=O)F)cc1")
4.68
>>> experimental_result("O=S(=O)(F)c1ccc2cn[nH]c2c1")
72.5
>>> experimental_result("C=CC(=O)NCc1ccc2c(c1)OCO2")
11.2
>>> experimental_result("CCCn1nc2c(cc1=O)CN(C1CC(C)OC1=O)CC2 (centres unmarked)")
86.8
>>> experimental_result("C=CC(=O)N1CCCC(c2ccc(F)c(F)c2)C1 (centres unmarked)")
9.29
>>> experimental_result("COc1ccc(C(=O)CCl)c(OC)c1")
41.1
>>> experimental_result("O=C(NCc1ccc2c(c1)OCO2)n1ccnc1")
99.9
>>> experimental_result("C=CC(=O)N1CCN(c2ccc(C)o2)C(=O)C1")
5.39
>>> experimental_result("Cc1cc(B2OC(C)(C)C(C)(C)O2)on1")
27.5
>>> experimental_result("C=CC(=O)Nc1c(C)nn(CC)c1C")
2.74
>>> experimental_result("O=C(CCl)N1CCN(c2ccc([N+](=O)[O-])cc2)CC1")
7.53
>>> experimental_result("CN(Cc1cccnc1)C(=O)n1ccnc1")
10.8
>>> experimental_result("Cc1cccc(C)c1N1C(=O)CN=C1S")
1.33
>>> experimental_result("CC(=O)c1ccc(N2CCN(C(=O)CCl)CC2)c(F)c1")
11
>>> experimental_result("CC1CC(N2CCN(C)c3ccccc3C2)C(=O)O1 (centres unmarked)")
0.987
>>> experimental_result("O=C(CCl)N1CCN(c2ccccc2[N+](=O)[O-])CC1")
80.7
>>> experimental_result("CCOc1ccc(CN(C)C(=O)CCl)cc1")
67.6
>>> experimental_result("C=CC(=O)N(C)C1CCCc2cccnc21 (centres unmarked)")
7.75
>>> experimental_result("Cl.O=C(CCl)N1CCN(Cc2ccccc2)CC1")
7.64
>>> experimental_result("O=C(CCl)N1CCN(C(=O)Nc2ccccc2)CC1")
64.2
>>> experimental_result("O=C(Cc1ccc(S(=O)(=O)F)cc1)NC1CCCC1")
2.81
>>> experimental_result("COCc1n[nH]c(=O)o1")
2.07
>>> experimental_result("COc1ccc(OC)c(C(=O)CCl)c1")
11.8
>>> experimental_result("O=C1CC2(CCN(Cc3ccc(Cl)cc3Cl)CC2)N1")
-1.16
>>> experimental_result("NC(=O)c1c(NC(=O)CCl)sc2c1CCC2")
38.6
>>> experimental_result("Cc1cc2[nH]ncc2cc1S(=O)(=O)F")
97.4
>>> experimental_result("Cc1ccc(CNC(=O)n2ccnc2)cc1")
104
>>> experimental_result("CC1(C(=O)Nc2cccc(S(=O)(=O)F)c2)CCOCC1")
83.4
>>> experimental_result("O=c1oc2cc(OCC3CO3)ccc2c2c1CCC2 (centres unmarked)")
10.6
>>> experimental_result("CC1CC(N2CCc3c(nc(C4CC4)n3C)C2)C(=O)O1 (centres unmarked)")
5.37
>>> experimental_result("CCN1CCN(c2oc(C3CC3)nc2C#N)CC1")
1.62
>>> experimental_result("CCc1nccn1S(=O)(=O)c1cc(Cl)c(C)cc1OC")
4.53
>>> experimental_result("C=CC(=O)N1CCC(S(=O)(=O)NC(C)C)C1 (centres unmarked)")
7.14
